Reported Ki by item:
# system.name: Cruzipain (Trypanosoma cruzi, UniProt P25779)
# Sequence (P25779 whole entry): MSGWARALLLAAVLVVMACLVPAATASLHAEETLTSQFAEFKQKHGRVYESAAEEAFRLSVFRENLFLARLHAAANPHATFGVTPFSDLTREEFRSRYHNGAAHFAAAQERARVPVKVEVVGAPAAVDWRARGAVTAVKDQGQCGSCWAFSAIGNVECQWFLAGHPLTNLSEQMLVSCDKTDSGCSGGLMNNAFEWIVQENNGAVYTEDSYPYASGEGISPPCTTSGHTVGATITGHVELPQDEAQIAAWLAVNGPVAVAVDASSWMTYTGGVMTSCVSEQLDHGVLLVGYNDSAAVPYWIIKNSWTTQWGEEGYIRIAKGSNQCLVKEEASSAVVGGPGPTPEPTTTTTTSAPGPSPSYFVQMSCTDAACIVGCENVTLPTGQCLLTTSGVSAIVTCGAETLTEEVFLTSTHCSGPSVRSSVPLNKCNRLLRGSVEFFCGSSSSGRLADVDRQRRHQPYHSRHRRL
experimental.endpoint: Ki

smiles.repr	system.name	experimental.endpoint	result.value
O=C(O)C[C@H](CCc1ccccc1)NC(=O)[C@H](Cc1ccccc1)NC(=O)OCc1ccccc1	Cruzipain (Trypanosoma cruzi, UniProt P25779)	Ki	> 10000 nM
O=C(N[C@@H](Cc1ccccc1)C(=O)N[C@H](CCS)CCc1ccccc1)OCc1ccccc1	Cruzipain (Trypanosoma cruzi, UniProt P25779)	Ki	> 5010 nM
O=C(N[C@@H](Cc1ccccc1)C(=O)N[C@@H](Cc1ccccc1)C(=O)CS)OCc1ccccc1	Cruzipain (Trypanosoma cruzi, UniProt P25779)	Ki	4.37 nM
O=C(N[C@@H](Cc1ccccc1)C(=O)N[C@@H](Cc1ccccc1)C(=O)CO)OCc1ccccc1	Cruzipain (Trypanosoma cruzi, UniProt P25779)	Ki	145 nM
